molecular target: Ataxin-2 (Homo sapiens); assay: qHTS for Inhibitors of ATXN expression.; assay type: functional
Screen size: about 400,000 compounds; about 2,100 (0.53%) were called active. Roughly 14% stayed inconclusive and do not appear here. How the calls were made is not given here. The sample as a whole holds a higher share of actives than the screen did.
Respond using exactly one of the listed classes: yes (1) (active), no (0) (inactive)

Take a look at these entries with their results.
{"columns": ["COMPOUND", "CLASS NAME"],
 "data": [
  ["CC(C)(C)NC(=O)C(c1ccncc1)N(C(=O)C1CSC(=O)C1)c1ccccc1 (stereo not drawn)", "no (0)"],
  ["CC(C)(C)NC(=O)C(c1ccc(-c2ccccc2)cc1)N(C[C@H]1CC[C@@H]([C@@H]2CC[C@H](CO)O2)O1)C(=O)c1ccc(-c2ccccc2)cc1 (stereo partly drawn)", "yes (1)"],
  ["Cc1cc(O)nc(SCC(=O)Nc2ccnc3ccccc23)n1", "no (0)"]
]}

How was `C[C@@H]1CN([C@@H](C)CO)S(=O)(=O)c2ccc(C#Cc3cccc(F)c3)cc2O[C@H]1CN(C)S(=O)(=O)c1cn(C)cn1` classified in this test?
yes (1)

Could you do the same for `C[C@H]1CN([C@@H](C)CO)S(=O)(=O)c2ccc(Br)cc2O[C@@H]1CN(C)Cc1cccc(F)c1` , please?
yes (1)

Moving on to `C[C@@H]1CN([C@H](C)CO)S(=O)(=O)c2ccc(C#Cc3ccccc3F)cc2O[C@@H]1CN(C)C(=O)Cc1ccccc1`
yes (1)

Could you do the same for `CCCc1cc(NCCCN(C)C)n2c(nc3ccccc32)c1C#N` , please?
no (0)

Can you check COc1ccc(CN(C(=O)c2snc(C(N)=O)c2N)C(C)C(=O)NCc2ccc(F)cc2)cc1 (stereo not drawn) next?
no (0)

* * *

target: Ataxin-2 (Homo sapiens); experiment: qHTS for Inhibitors of ATXN expression.; assay type: functional
Out of some 400,000 compounds screened, about 2,100 (0.53%) were called active. Roughly 14% stayed inconclusive and do not appear here. The rule behind the calls is not given here. Only a selection was taken, and actives are over-represented in it overall.
Select the correct class. Options are active, inactive and nothing else.

Below, 4 molecules whose answers are already recorded.
{"columns": ["SMILES NOTATION", "CLASS NAME"],
 "data": [
  ["Cc1cccc(C)c1NC(=O)Cn1nnc(-c2ccc(N3CCOCC3)cc2)n1", "active"],
  ["CC(C)c1ccc(/C=C(\\NC(=O)c2ccccc2)C(=O)NCCCn2ccnc2)cc1", "inactive"],
  ["O=S(=O)(N/N=C1\\CCCc2ccccc21)c1ccccc1", "inactive"],
  ["O=C(Cn1nnc(-c2ccccc2)n1)NCC(=O)Nc1ccc(F)c(F)c1F", "inactive"]
]}

I would be grateful if you could indicate the recorded call for `Cc1ccccc1-c1nnn(CC(=O)Nc2ccc3c(c2)OCO3)n1` .
inactive

What would you report for `CSc1nsc(SCC(=O)Nc2ccccc2C(N)=O)n1` ?
inactive

* * *

target: Ataxin-2 (Homo sapiens) (UniProt Q99700); experiment: qHTS for Inhibitors of ATXN expression.; format: functional
Sequence (Q99700 whole entry): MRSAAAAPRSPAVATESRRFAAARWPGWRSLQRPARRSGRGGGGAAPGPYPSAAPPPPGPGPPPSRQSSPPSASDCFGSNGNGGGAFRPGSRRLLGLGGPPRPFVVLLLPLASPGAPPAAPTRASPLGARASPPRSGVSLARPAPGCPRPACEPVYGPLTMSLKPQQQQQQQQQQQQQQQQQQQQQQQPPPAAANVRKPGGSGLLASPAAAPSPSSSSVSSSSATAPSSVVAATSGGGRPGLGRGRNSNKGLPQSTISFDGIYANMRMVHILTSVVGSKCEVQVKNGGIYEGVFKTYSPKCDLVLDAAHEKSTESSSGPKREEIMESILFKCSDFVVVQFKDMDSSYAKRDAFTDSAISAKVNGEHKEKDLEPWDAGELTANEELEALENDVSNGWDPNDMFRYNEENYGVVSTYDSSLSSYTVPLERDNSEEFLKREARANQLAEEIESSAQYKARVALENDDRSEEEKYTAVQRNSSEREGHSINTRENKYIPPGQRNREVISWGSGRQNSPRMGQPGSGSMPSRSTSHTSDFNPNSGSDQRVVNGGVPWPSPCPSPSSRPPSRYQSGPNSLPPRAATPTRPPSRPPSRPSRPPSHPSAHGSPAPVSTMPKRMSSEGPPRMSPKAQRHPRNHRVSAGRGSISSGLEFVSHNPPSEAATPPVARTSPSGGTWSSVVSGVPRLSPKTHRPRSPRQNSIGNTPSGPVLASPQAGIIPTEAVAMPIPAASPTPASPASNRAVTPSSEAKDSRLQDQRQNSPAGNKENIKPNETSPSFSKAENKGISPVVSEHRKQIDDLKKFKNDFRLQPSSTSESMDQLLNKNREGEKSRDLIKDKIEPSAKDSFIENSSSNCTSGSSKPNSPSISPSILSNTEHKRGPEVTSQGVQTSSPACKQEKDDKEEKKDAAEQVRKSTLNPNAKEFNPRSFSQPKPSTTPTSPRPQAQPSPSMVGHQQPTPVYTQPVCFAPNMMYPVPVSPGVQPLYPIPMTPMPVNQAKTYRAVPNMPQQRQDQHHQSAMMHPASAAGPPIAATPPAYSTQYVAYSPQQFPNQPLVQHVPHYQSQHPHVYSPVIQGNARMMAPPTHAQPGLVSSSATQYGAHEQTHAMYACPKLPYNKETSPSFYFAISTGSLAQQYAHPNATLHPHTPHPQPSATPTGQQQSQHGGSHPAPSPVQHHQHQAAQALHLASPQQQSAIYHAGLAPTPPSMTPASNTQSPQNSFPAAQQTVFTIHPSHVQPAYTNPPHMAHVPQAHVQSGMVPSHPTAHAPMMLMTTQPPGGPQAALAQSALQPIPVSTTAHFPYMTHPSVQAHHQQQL
The campaign covered roughly 400,000 compounds. About 2,100 (0.53%) were called active. Inconclusive results (about 14%) are left out. The rule behind the calls is not given here. The full list was thinned out, with actives kept by preference.
Outcome field: choose from active, inactive

Solved cases below.
{"columns": ["COMPOUND", "CLASS NAME"],
 "data": [
  ["COC(=O)c1c(NC(=O)c2ccc(S(=O)(=O)N(C)C3CCCCC3)cc2)sc2c1CCN(C)C2", "inactive"],
  ["Cn1nc(C(=O)Nc2cccc(S(=O)(=O)N3CCCC3)c2)c2ccccc2c1=O", "inactive"],
  ["COc1ccccc1[C@@H]1C(c2cccc(Cl)c2)=NN(c2ccccc2)[C@H]1C(=O)N1CCOC1=O", "inactive"],
  ["COc1ccc(OC)c(NC(=O)C(C)Oc2ccc(Br)cc2)c1 (stereo unspecified)", "inactive"],
  ["O=C1OCCN1C(=O)[C@H]1[C@H](c2ccc(F)cc2)C(c2cccc(Cl)c2)=NN1c1ccc(Br)cc1", "inactive"],
  ["N=c1oc2cc(O)ccc2cc1C(=O)Nc1ccc(Cl)cc1", "inactive"],
  ["CCOc1ccccc1NC(=O)c1ccc2c(O)c(S(=O)(=O)c3ccccc3)c(O)nc2c1", "inactive"],
  ["CCOCCCn1/c(=N/C(C)=O)c(C(=O)OCC)cc2c(=O)n3ccccc3nc21", "inactive"],
  ["Cc1cc(-c2onc3ccc(Cl)cc23)ccc1O", "inactive"],
  ["Cc1c(C(=O)Nc2ccc(S(=O)(=O)N(C)C3CCN(C)CC3)cc2)oc2c(Cl)cccc12", "active"]
]}

GET /call?item= `O=C(Nc1ccc(N2CCN(C(=O)c3ccco3)CC2)cc1)c1cc(Br)ccc1Cl` returns the recorded outcome of this test.
active

Record: `COc1cc2c(cc1NC(=O)C(Cl)Cl)-c1ccc(NC(=O)C(Cl)Cl)cc1C2`
active

* * *

biological target: Ataxin-2 (Homo sapiens) (UniProt Q99700); assay: qHTS for Inhibitors of ATXN expression.; format: functional
Out of some 400,000 compounds screened, about 2,100 (0.53%) were called active. Inconclusive results (about 14%) are left out. The rule behind the calls is not given here. What follows is part of a selection rich in actives, with near analogues and random picks from the rest.
Assign a class; possible classes are TRUE for active, FALSE for inactive

{"columns": ["COMPOUND", "CLASS NAME"],
 "data": [
  ["N#CCC(=O)N/N=C/c1ccc(N2N=C(c3ccccc3)CC2c2ccccc2)cc1 (stereo unspecified)", "FALSE"]
]}

Query: recorded result category for `CC1=[N+](C)c2c(ccc3cccnc23)C1(C)C` in this test
FALSE

What about `Cc1c(O)ccc2c(CN3CCN(Cc4ccccc4)CC3)cc(=O)oc12` ?
FALSE

* * *

molecular target: Ataxin-2 (Homo sapiens) (UniProt Q99700); test: qHTS for Inhibitors of ATXN expression.; assay type: functional
In all, about 400,000 compounds went through this assay and about 2,100 (0.53%) were called active. Another 14% or so got no clear call; they are omitted. The rule behind the calls is not given here. For the sample, actives were picked, then their nearest neighbours and some compounds at random.
Output constraint: value belongs to active, inactive

Completed entries (count: 5):
{"columns": ["COMPOUND", "CLASS NAME"],
 "data": [
  ["C=CC[C@H](CC(=O)N(CCO)Cc1ccccc1)C(=O)N[C@@H](COC(=O)[C@@H](CC=C)CC(=O)OC(C)(C)C)Cc1c[nH]c2ccccc12", "active"],
  ["CCCCc1c(-c2ccccc2OC)ncn1Cc1ccc(-c2ccccc2)cc1", "active"],
  ["O=C(O)c1cccc(NC(=O)c2cc3cc(Br)cc(Br)c3oc2=O)c1", "inactive"],
  ["COc1ccc(N2C(=O)CC(Nc3ccc(C(=O)O)cc3)C2=O)cc1OC (stereo unspecified)", "inactive"],
  ["O=C1OCCN1C(=O)[C@H]1[C@H](c2ccc(Cl)cc2)C(c2cccc(Cl)c2)=NN1c1ccc(Br)cc1", "inactive"]
]}

What did the test return for `CC(C)OCCCN(C)C1CCN(S(=O)(=O)c2ccc(-c3cc(C(F)(F)F)no3)s2)CC1` ?
inactive

Similarly, `Cn1c(SCc2cc(O)nc(C(C)(C)C)n2)nnc1C(F)(F)F` ?
inactive

* * *

target: Ataxin-2 (Homo sapiens) (UniProt Q99700); assay: qHTS for Inhibitors of ATXN expression.; format: functional
Among all 400,000 compounds or so, about 2,100 (0.53%) were called active. Inconclusive results (about 14%) are left out. How the calls were made is not given here. The list comes from a sample in which actives are over-represented; it also holds close analogues and randomly drawn compounds.
Your answer must be one of the following: active, inactive

{"columns": ["MOLECULE", "CLASS NAME"],
 "data": [
  ["NC(=O)c1ccc(NC(=O)c2cc(S(=O)(=O)N3CCCCC3)ccc2N2CCOCC2)cc1", "inactive"],
  ["CCCNC(=O)C[S+]([O-])Cc1nc(-c2ccccc2C)oc1C (stereo not given)", "inactive"],
  ["CN1CCN(c2ccc(S(=O)(=O)N3CCCCC3)cc2NC(=O)c2cccc([N+](=O)[O-])c2)CC1", "inactive"]
]}

Tell me the assay call for `O=C(CSc1nnc(-c2cccc(Br)c2)o1)N1CCNC1=O` please.
inactive

Record: `Cc1ccccc1NC(=O)c1cc(S(=O)(=O)N2CCCCC2)ccc1N1CCOCC1`
inactive

Next entry: `CCOC(=O)c1cnc2ccc(C)cc2c1N(C)Cc1ccccc1`
inactive

Also need COc1ccc(CCn2c(=N)c(C(=O)NCC3CCCO3)cc3c(=O)n4ccccc4nc32)cc1 (stereo not given) , thanks.
active

Same question for `C=Cc1ncc(OC)c2c1[nH]c1ccccc12` please.
active

Proceed to `O=C(Nc1ccc(S(=O)(=O)N2CCCC2)cc1)c1ccc([N+](=O)[O-])o1`
active

Note, next up: `CCOC(=O)c1cnc2ccc3ccccc3c2c1O`
inactive
